Biological target: JAK1 (Homo sapiens, UniProt P23458)
Construct: 5 μl of catalytic domain recombinant Kinase enzyme+Tyr peptide substrate (Invitrogen, Calif.)
Sequence (P23458 875-1153 limits assumed): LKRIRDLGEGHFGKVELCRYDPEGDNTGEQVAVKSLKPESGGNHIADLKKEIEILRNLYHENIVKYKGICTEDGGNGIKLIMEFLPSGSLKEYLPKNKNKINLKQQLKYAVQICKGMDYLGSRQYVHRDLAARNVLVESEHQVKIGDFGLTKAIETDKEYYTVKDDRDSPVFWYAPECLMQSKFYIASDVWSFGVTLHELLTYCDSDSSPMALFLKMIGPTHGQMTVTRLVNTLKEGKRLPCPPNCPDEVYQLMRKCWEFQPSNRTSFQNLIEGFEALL
Assay: Z'-LYTE kinase assay, JAK1 tyrosine phosphorylation activity
Settings: read-out: JAK 1 IC50
Provide the recorded IC50 for the entries that follow.

As a guide, the following entries are already answered.
CC(=O)Nc1cc(Cl)cc(Nc2ncc(C(N)=O)c(NCc3cccc(F)c3)n2)c1 [Example 261] :: > 1000 nM
CC(=O)Nc1cccc(Nc2ncc(C(N)=O)c(NC[C@@H](C)c3ccccc3)n2)c1 [Example 3] :: 10 to 100 nM

Hi, could you look up IC50 for each item in my list?
1. CC(=O)N(C)c1cccc(Nc2ncc(C(N)=O)c(NC3CCCC3)n2)c1 [Example 78]
2. COCC(=O)N(C)c1cccc(Nc2ncc(C(N)=O)c(N[C@H](C)c3ccccc3)n2)c1 [Example 86]
3. CNC(=O)Nc1ccc(F)c(Nc2ncc(C(N)=O)c(NCc3ccccc3)n2)c1 [Example 200]
4. CC(=O)Nc1cccc(Nc2ncc(C(N)=O)c(NCCc3ccccc3)n2)c1 [Example 56]
5. CC(=O)Nc1cccc(Nc2ncc(C(N)=O)c(N[C@H](CO)c3ccccc3)n2)c1 [Example 93]
6. NC(=O)c1cnc(Nc2cccc(NC(=O)C3CCC3)c2)nc1NC1CCCC1 [Example 20]

Output line:
1. 10 to 100 nM
2. 100 to 1000 nM
3. > 1000 nM
4. 100 to 1000 nM
5. 100 to 1000 nM
6. 10 to 100 nM

Hi, could you look up IC50 for each item in my list?
1. CC(=O)Nc1cccc(Nc2ncc(C(N)=O)c(NCc3ccccn3)n2)c1 [Example 187]
2. NC(=O)c1cnc(Nc2cccc(NC(=O)N3CCCC3)c2)cc1NCc1cc(F)cc(F)c1 [Example 341]
3. CN(C(=O)N1CCCC1)c1cc(Nc2ncc(C(N)=O)c(NCc3ccccc3)n2)ccc1Cl [Example 241]
4. NC(=O)c1cnc(Nc2ccc(N3CCCC3)c(NC(=O)N3CCCC3)c2)nc1NCc1ccccc1 [Example 159]

Output line:
100 to 1000 nM
> 1000 nM
100 to 1000 nM
100 to 1000 nM

Hi, could you look up IC50 for each item in my list?
1. COC(=O)Nc1cccc(Nc2ncc(C(N)=O)c(NCC(F)(F)F)n2)c1 [Example 4]
2. COCC(=O)Nc1cccc(Nc2ncc(C(N)=O)c(NC3CCCC3)n2)c1 [Example 22]
3. CC(=O)Nc1cccc(Nc2ncc(C(N)=O)c(Nc3cccc4nsnc34)n2)c1 [Example 192]
4. NC(=O)c1cnc(Nc2cccc(NC(=O)C3CCOC3)c2)nc1NCc1ccccc1 (stereo not shown) [Example 203]
5. CC[C@H](C)Nc1nc(Nc2ccc(Cl)c(NC(=O)NC)c2)ncc1C(N)=O [Example 175]
6. NC(=O)c1cnc(Nc2ccc(Cl)c(NC(=O)NC3CC3)c2)nc1NCc1ccccc1 [Example 154]
7. CNC(=O)c1cnc(Nc2cccc(NC(C)=O)c2)nc1NCc1ccccc1 [Example 112]
8. CC(C)[C@H](C)Nc1nc(Nc2ccc(Cl)c(NC(=O)N3CCCC3)c2)ncc1C(N)=O [Example 248]

Output line:
1. 10 to 100 nM
2. 10 to 100 nM
3. > 1000 nM
4. 10 to 100 nM
5. 100 to 1000 nM
6. > 1000 nM
7. > 1000 nM
8. 10 to 100 nM

###

Provide the recorded pIC50 for the entries that follow.
Target: TYK2 (Homo sapiens)
Construct: 5 μl of catalytic domain recombinant Kinase enzyme+Tyr peptide substrate (Invitrogen, Calif.)
Sequence (P29597 897-1176 limits assumed): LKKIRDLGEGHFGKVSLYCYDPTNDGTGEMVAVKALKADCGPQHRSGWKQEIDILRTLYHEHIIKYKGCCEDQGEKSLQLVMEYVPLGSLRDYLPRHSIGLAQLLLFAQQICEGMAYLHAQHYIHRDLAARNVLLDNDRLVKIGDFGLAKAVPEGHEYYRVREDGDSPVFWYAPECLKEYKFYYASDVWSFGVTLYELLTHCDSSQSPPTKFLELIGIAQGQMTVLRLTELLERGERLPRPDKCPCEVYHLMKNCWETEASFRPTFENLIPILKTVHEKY
Assay: Z'-LYTE kinase assay, TYK2 tyrosine phosphorylation activity
pIC50: −log10 of the molar value.

As a guide, the following entries are already answered.
CC[C@@H](C)Nc1nc(Nc2cccc(NC(C)=O)c2)ncc1C(N)=O [Example 238] :: 8.00 to 9.00
COCC(=O)Nc1cccc(Nc2ncc(C(N)=O)c(NCC3CC3)n2)c1 [Example 124] :: 8.00 to 9.00
CC(=O)Nc1cccc(Nc2ncc(C(N)=O)c(NCC(C)C)n2)c1 [Example 235] :: 8.00 to 9.00
CC(=O)N(C)c1cccc(Nc2ncc(C(N)=O)c(NCC3CC3)n2)c1 [Example 126] :: 7.00 to 8.00
C[C@@H]1CCCN1C(=O)Nc1cccc(Nc2ncc(C(N)=O)c(NCc3ccccc3)n2)c1 [Example 146] :: 8.00 to 9.00

Hi, could you look up pIC50 for each item in my list?
1. CC(=O)Nc1cccc(Nc2ncc(C(N)=O)c(N[C@@H]3CCCNC3)n2)c1 [Example 66]
2. CCNC(=O)Nc1cc(Nc2ncc(C(N)=O)c(NCc3ccccc3)n2)ccc1Cl [Example 153]
3. CC(=O)Nc1cccc(Nc2ncc(C(N)=O)c(NCc3ccccc3)n2)c1 [Example 17]

Output line:
["6.00 to 7.00", "7.00 to 8.00", "8.00 to 9.00"]

Input line: // lookup pIC50 for COCC(=O)Nc1cccc(Nc2ncc(C(N)=O)c(NCc3ccc(F)cc3)n2)c1 [Example 104]
Output line: 7.00 to 8.00

###

Provide the recorded pIC50 for the entries that follow.
Molecular target: JAK1 (Homo sapiens)
Construct: 5 μl of catalytic domain recombinant Kinase enzyme+Tyr peptide substrate (Invitrogen, Calif.)
Assay: Z'-LYTE kinase assay, JAK1 tyrosine phosphorylation activity
Conditions: read-out: JAK 1 IC50
pIC50: −log10 of the molar value.

Hi, could you look up pIC50 for each item in my list?
1. CC(=O)Nc1cccc(Nc2cc(NCc3cccc(Cl)c3)c(C(N)=O)cn2)c1
2. CC(=O)N(C)c1cccc(Nc2ncc(C(N)=O)c(NCc3ccccc3)n2)c1
3. COc1ccc(Nc2ncc(C(N)=O)c(NCc3ccccc3)n2)cc1N(C)C(=O)N1CCCC1
4. NC(=O)c1cnc(Nc2cccc(NC(=O)N3CCCC3)c2)nc1NC1CCCC1

Output line:
["6.00 to 7.00", "7.00 to 8.00", "6.00 to 7.00", "7.00 to 8.00"]

###

Biological target: JAK3 (Homo sapiens, UniProt P52333)
Construct: 5 μl of catalytic domain recombinant Kinase enzyme+Tyr peptide substrate (Invitrogen, Calif.)
Sequence (P52333 822-1111 limits assumed): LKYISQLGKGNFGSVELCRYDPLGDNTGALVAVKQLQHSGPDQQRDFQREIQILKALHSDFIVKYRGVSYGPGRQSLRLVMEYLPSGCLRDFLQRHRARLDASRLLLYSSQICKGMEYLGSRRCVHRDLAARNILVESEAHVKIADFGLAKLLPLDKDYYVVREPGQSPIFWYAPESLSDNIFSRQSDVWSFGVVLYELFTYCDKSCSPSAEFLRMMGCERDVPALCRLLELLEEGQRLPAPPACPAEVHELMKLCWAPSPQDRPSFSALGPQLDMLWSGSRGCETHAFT
Assay: Z'-LYTE kinase assay, JAK3 tyrosine phosphorylation activity
property: IC50

As a guide, the following entries are already answered.
CN1CCN(C(=O)Nc2cccc(Nc3ncc(C(N)=O)c(NCc4ccccc4)n3)c2)CC1 :: < 1 nM
C[C@@H](Nc1nc(Nc2ccc(Cl)c(NC(=O)C3CC3)c2)ncc1C(N)=O)c1ccccc1 :: 10 to 100 nM
COC(=O)Nc1cccc(Nc2ncc(C(N)=O)c(NCC(F)(F)F)n2)c1 :: 10 to 100 nM
CC(=O)Nc1cccc(Nc2ncc(C(N)=O)c(N[C@H](C)c3ccccc3)n2)c1 :: 1 to 10 nM
CC(=O)Nc1cc(Nc2ncc(C(N)=O)c(Nc3cccc4nsnc34)n2)ccc1OCCCN1CCCCC1 :: 1 to 10 nM
CC(=O)Nc1cccc(Nc2ncc(C(N)=O)c(NCc3cccc(F)c3F)n2)c1 :: 1 to 10 nM

Hi, could you look up IC50 for each item in my list?
1. CCCCNc1nc(Nc2cccc(NC(=O)N3CCCC3)c2)ncc1C(N)=O
2. C[C@@H]1CCCN1C(=O)Nc1cccc(Nc2ncc(C(N)=O)c(NCc3ccccc3)n2)c1

Output line:
1: 1 to 10 nM; 2: 1 to 10 nM

###

Biological target: JAK3 (Homo sapiens, UniProt P52333)
Construct: 5 μl of catalytic domain recombinant Kinase enzyme+Tyr peptide substrate (Invitrogen, Calif.)
Assay: Z'-LYTE kinase assay, JAK3 tyrosine phosphorylation activity
property: IC50

As a guide, the following entries are already answered.
CC(=O)Nc1cccc(Nc2ncc(C(N)=O)c(Nc3ccc(N4CCOCC4)c(F)c3)n2)c1 :: 10 to 100 nM
COc1ccc(Nc2ncc(C(N)=O)c(NCc3ccccc3)n2)cc1NC(=O)N1CCCC1 :: 1 to 10 nM
NC(=O)c1cnc(Nc2ccc(Cl)c(NC(=O)N3CCCCC3)c2)nc1NCc1ccccc1 :: 1 to 10 nM
CC(=O)N(C)c1cccc(Nc2ncc(C(N)=O)c(NC3CCCC3)n2)c1 :: 1 to 10 nM
CCNc1nc(Nc2cccc(NC(=O)N3CCCC3)c2)ncc1C(N)=O :: 1 to 10 nM
CC(C)[C@@H](C)Nc1nc(Nc2ccc(Cl)c(NC(=O)N3CCCC3)c2)ncc1C(N)=O :: 1 to 10 nM

Hi, could you look up IC50 for each item in my list?
1. CC(=O)Nc1cccc(Nc2ncc(C(N)=O)c(NC3CC3c3ccccc3)n2)c1 (stereo not shown)
2. CC(=O)Nc1cc(Nc2ncc(C(N)=O)c(Nc3cccc4nn(C)cc34)n2)ccc1OCCN(C)C
3. NC(=O)c1cnc(Nc2ccc(F)c(NC(=O)N3CCCC3)c2)cc1NCc1cccnc1
4. COCC(=O)Nc1cccc(Nc2ncc(C(N)=O)c(N[C@H](C)c3ccccc3)n2)c1
5. NC(=O)c1cnc(Nc2cccc(NC(=O)N3CCCC3)c2)cc1NCc1ccccc1
6. COCC(=O)N(C)c1cccc(Nc2ncc(C(N)=O)c(NCc3ccccc3)n2)c1
7. CC(=O)Nc1cccc(Nc2cc(NCc3cccnc3)c(C(N)=O)cn2)c1
8. CCOC(=O)Nc1cccc(Nc2ncc(C(N)=O)c(NCc3ccccc3)n2)c1

Output line:
10 to 100 nM
10 to 100 nM
10 to 100 nM
1 to 10 nM
1 to 10 nM
1 to 10 nM
10 to 100 nM
1 to 10 nM
